Property: Kp at 4 h; scope: individual molecules
- test: Short term HFD mouse model: liver and plasma exposure after multiple oral dosing
- Format: in vivo, mice (C57BL/6J)
- assayConditions: C57BL/6J, liver/plasma, HFD mice, three oral doses of 10 mg/kg each, 4 h after final dose, read-out: liver/plasma ratio, 4 h
testReadout: Kp at 4 h

>>> numericreadout("COc1ccc2c(c1C(=O)N(Cc1ccc(-c3cccc(C(C)(C)C(=O)O)c3)cc1)Cc1ccc(C(F)(F)F)o1)CCCC2")
367
>>> numericreadout("COc1ccc2c(c1CN(Cc1ccc(-c3cccc(C(C)(C)C(=O)O)c3)cc1)Cc1ccc(C(F)(F)F)o1)CCCC2")
2.3
>>> numericreadout("Cc1nc2ccccc2c(C(=O)N(Cc2ccc(-c3cccc(C(C)(C)C(=O)O)c3)cc2)Cc2ccc(C(F)(F)F)o2)c1C")
39.2
>>> numericreadout("Cc1ccc2ccccc2c1C(=O)N(Cc1ccc(-c2cccc(C(C)(O)C(=O)O)c2)cc1)Cc1ccc(C(F)(F)F)o1 (stereo not shown)")
30
>>> numericreadout("Cc1ccc2ccccc2c1C(=O)N(Cc1ccc(C(F)(F)F)o1)Cc1ncc(-c2cccc(C(C)(C)C(=O)O)c2)cc1Cl")
61.3
>>> numericreadout("Cc1ccc2ccccc2c1C(=O)N(Cc1ccc(-c2cc(F)cc(C3(C(=O)O)CC3)c2)cc1)Cc1ccc(C(F)(F)F)o1")
16.4
>>> numericreadout("Cc1ccc2ccccc2c1CN(Cc1ccc(-c2cccc([C@@H](C)C(=O)O)c2)cc1)Cc1ccc(C(F)(F)F)o1")
1.4

Origin of the recorded values: patent US20200131144A1
